assay: gradient 5% acetonitrile 3 min, to 50% in 2 min, to 85% in 15 min, held 3 min, 100 µL/min; details: column: Zorbax Extend-C18 2.1 x 50 mm; eluents: water / acetonitrile, 0.1% formic acid
Assignment: determine reported RP-LC retention time for the given compounds.
Give just the numeric value; s need not be written.

// sample Cn1cnc(S(=O)(=O)N2CCCC(c3nnnn3-c3ccccc3)C2)c1 (stereo not given) , its RP-LC retention time was 690

Quick note, RP-LC retention time for CCn1c(SC)nnc1-c1nn(C)c2c1CN(C(=O)c1cccn1C)CC2 landed at 684

Lab book: RP-LC retention time of CC(C)NC(=O)c1cccc(Nc2c(-c3ccc(Cl)cc3)nc3cnccn23)c1 noted as 687

Lookup result for CCC(C(=O)Nc1ccc2ncnc(N3CCCC3)c2c1)c1ccccc1 (stereo not given) ; measured RP-LC retention time: 703

Per the records, this compound ( COc1ccc(CC(=O)N2CCC3(CC2)NC(=O)c2ccccc2N3C)cc1OC ) has RP-LC retention time equal to 711

* * *

test: gradient 5% acetonitrile 3 min, to 50% in 2 min, to 85% in 15 min, held 3 min, 100 µL/min; conditions: column: Zorbax Extend-C18 2.1 x 50 mm; eluents: water / acetonitrile, 0.1% formic acid
The threshold is inclusive: RP-LC retention time of exactly 700 s counts as YES; values below receive NO.

**Q:** Hello, I need to know if CCn1ccc(C(=O)NC2CC2)n1 has measured RP-LC retention time not below 700 s. Thanks!
**A:** NO

**Q:** Decide: is the reported value of RP-LC retention time for CCCn1c(=O)c(C)nc2cc(-c3noc(C4CC(=O)N(C5CCCC5)C4)n3)ccc21 (stereo not drawn) equal to or greater than 700 s?
**A:** YES

**Q:** Decide: is the reported value of RP-LC retention time for O=c1c(=O)n(-c2cccc(Cl)c2)ccn1Cc1nc(-c2ccc(F)cc2)no1 equal to or greater than 700 s?
**A:** YES

**Q:** Has Cc1ccc2nc(N3CCN(C(=O)C(C)(C)C)CC3)c(-c3noc(-c4ccccc4)n3)cc2c1 a recorded RP-LC retention time greater than or equal to 700 s?
**A:** YES

**Q:** Evaluate C[C@H]1CN(C(=O)Nc2cc(F)cc(F)c2)C[C@@H]1c1nc(-c2ccncc2)no1 : RP-LC retention time at minimum 700 s?
**A:** YES

**Q:** Could you verify whether the entry O=C1NC2(CCN(C(=O)c3ccc(F)cc3)CC2)N=C1c1cccc(F)c1 shows RP-LC retention time of no less than 700 s?
**A:** NO

**Q:** Assess whether reported RP-LC retention time for CC1CN=C2C(N3CCN(C(=O)c4ccc(C#N)cc4)CC3)=NC=CN21 (stereo not drawn) sits at 700 s or higher.
**A:** NO

**Q:** Exam item: decide whether the reported RP-LC retention time for COc1ccc(C2C(C(=O)O)CCC(=O)N2c2ccc(OC)cc2)cc1 (stereo not drawn) is at least 700 s.
**A:** NO

**Q:** Does RP-LC retention time meet or surpass 700 s for COc1ccccc1-c1noc(C2CCCN2C(=O)Cc2c[nH]c3ccccc23)n1 (stereo not drawn) ?
**A:** YES

**Q:** State whether the measured RP-LC retention time reaches 700 s, counting equality as reaching it, for CCC(C)NC(=O)N1CCN(c2cc(-c3cccc(F)c3)ncn2)CC1 (stereo not drawn)
**A:** NO

**Q:** Reported RP-LC retention time reaches at least 700 s for CCOC(=O)c1noc2ncnc(N(CC)c3ccccc3)c12 ?
**A:** YES

**Q:** Hi team, for CCCN(CC1CCOC1)S(=O)(=O)c1ccc(OC)c(Cl)c1 (stereo not drawn) , is the recorded RP-LC retention time at or above 700 s?
**A:** YES

**Q:** Does CCCCC(=O)N1CCN(c2ncccc2-c2nnc(C(C)C)o2)CC1 have a reported RP-LC retention time of at least 700 s?
**A:** YES

**Q:** Decide: RP-LC retention time of Cc1ccc(CCNC(=O)c2ncn3c2C(=O)N(C2CC2)C(C)(C(=O)NC2CCCC2)C3)cc1 (stereo not drawn) >= 700 s?
**A:** YES

**Q:** Decide: is the reported value of RP-LC retention time for CC1(C(=O)NCc2ccccc2)CN(S(C)(=O)=O)CC(=O)N1CCCc1ccccc1 (stereo not drawn) equal to or greater than 700 s?
**A:** YES

**Q:** # bool: RP-LC retention time of CCC(=O)N1CCC2(CC1)c1nccn1-c1ccccc1CN2CC(C)C >= 700 s
**A:** NO

**Q:** Could you verify whether the entry CCc1noc([C@@H]2CC(F)(F)CN2C(=O)CCn2ccnc2)n1 shows RP-LC retention time of no less than 700 s?
**A:** NO

**Q:** Exam item: decide whether the reported RP-LC retention time for O=C(NCC1CCOCC1)c1ccc2c(c1)OCO2 is at least 700 s.
**A:** NO

**Q:** Is RP-LC retention time for CN(CCNc1nc(-c2ccc(Cl)cc2)nc2ccccc12)C1CCCCC1 at or above 700 s?
**A:** NO

**Q:** Please check the record Cc1ccc(C2NC(=O)N(CC(=O)Nc3ccc4c(c3)OCO4)C3=C2C(=O)OC3)cc1 (stereo not drawn) and state if its RP-LC retention time is at or above 700 s.
**A:** YES

**Q:** Does RP-LC retention time meet or surpass 700 s for CCc1nc2cc(N3CCC(C(=O)NCc4cc(F)ccc4F)CC3)cnc2nc1CC ?
**A:** YES

**Q:** Reported RP-LC retention time reaches at least 700 s for COc1ccc(-c2noc(C3CCCN3C(=O)c3ccc(N(C)C)cc3)n2)cc1 (stereo not drawn) ?
**A:** YES

**Q:** Would you say CC1CN(S(=O)(=O)c2cccc(-c3cn4ccccc4n3)c2)CC(C)O1 (stereo not drawn) shows RP-LC retention time at minimum 700 s?
**A:** NO

**Q:** Item O=C(Cc1nnc(-c2cccc(F)c2)o1)N1CCCCC1 with RP-LC retention time of 700 s or above?
**A:** NO

* * *

experiment: gradient 5% acetonitrile 3 min, to 50% in 2 min, to 85% in 15 min, held 3 min, 100 µL/min; conditions: column: Zorbax Extend-C18 2.1 x 50 mm; eluents: water / acetonitrile, 0.1% formic acid
Label Criterion met when RP-LC retention time is at or above 700 s; otherwise label Criterion not met.

**Q:** Form field: RP-LC retention time at least 700 s? Entry: O=C(O)Cc1sc(Nc2ccc(Br)cc2)nc1-c1ccccc1
**A:** Criterion met

**Q:** Could you tell me if the measured RP-LC retention time of O=C(C1CCN(c2nnc3ccccn23)CC1)N1CCN(c2ccccn2)CC1 reaches 700 s or more?
**A:** Criterion not met

**Q:** Is reported RP-LC retention time greater than or equal to 700 s here: O=C(NC1CCCC1)c1ccn[nH]1
**A:** Criterion not met

**Q:** API: above_or_equal(metric=RP-LC retention time, cutoff=700 s) for item COc1ccc(-c2noc(Cc3nnc(-c4cccc(Cl)c4)o3)n2)cc1F
**A:** Criterion met

**Q:** Reported RP-LC retention time at or above 700 s? CCOC(=O)c1csc(-n2nc(C(F)(F)F)cc2-c2ccc(OC)cc2)n1
**A:** Criterion met

**Q:** In plain terms: is recorded RP-LC retention time at least 700 s for COC(=O)C1=C(C)NC(=O)NC1c1cn(-c2ccccc2)nc1-c1ccc(F)cc1 (stereo not drawn) ?
**A:** Criterion met

**Q:** // inclusive: RP-LC retention time at least 700 s? input: CCn1cc(-c2nc(C(=O)Nc3cccc(C)c3)cs2)c2cccnc21
**A:** Criterion met

**Q:** Decide: RP-LC retention time of COc1ccc(Cn2nc3ccc(S(=O)(=O)N4CCCCC4)cn3c2=O)cc1F >= 700 s?
**A:** Criterion met

**Q:** Evaluate COC(=O)c1c(-c2cccc(F)c2)noc1NCCN1CCCC1 : RP-LC retention time at minimum 700 s?
**A:** Criterion not met

**Q:** hey, is RP-LC retention time for this one >= 700 s? O=C(NC1CC1)C1CCN(S(=O)(=O)Cc2ccc(F)cc2)CC1
**A:** Criterion met

**Q:** Decide: RP-LC retention time of COc1cccc(OC)c1CN1CCC2(CC1)CC(O)CCO2 (stereo not drawn) >= 700 s?
**A:** Criterion not met

**Q:** Confirm if RP-LC retention time reported for the compound CC(C)c1cccc(NS(=O)(=O)c2cc3n(c2)CCCNC3=O)c1 is 700 s or above.
**A:** Criterion met

**Q:** I'd appreciate it if you could say whether COc1cc(CN(C)C2CCc3nnc(C4CCOCC4)n3CC2)cc(OC)c1 (stereo not drawn) has RP-LC retention time at least equal to 700 s.
**A:** Criterion not met

**Q:** Dear colleague, could you confirm whether O=C(NCC1COc2ccccc2O1)C(=O)Nc1cccc(Br)c1 (stereo not drawn) has RP-LC retention time at or above 700 s?
**A:** Criterion met

**Q:** Threshold query (RP-LC retention time >= 700 s) on CCC(C(=O)NCCc1c[nH]c2ccccc12)n1c2ccccc2c2cnn(C)c(=O)c21 (stereo not drawn)
**A:** Criterion met

**Q:** Check the entry CC(C)c1ccc(C(=O)N2CCc3c(c(-c4nc(C5CC5)no4)nn3C)C2)cc1 : does RP-LC retention time equal or exceed 700 s?
**A:** Criterion met

**Q:** Reported RP-LC retention time reaches at least 700 s for Cc1ccccc1OCC(=O)N1CCN(c2nc(CN3CCOCC3)cs2)CC1 ?
**A:** Criterion not met

**Q:** Assess whether reported RP-LC retention time for Cc1ccc2c(c1)cc(S(=O)(=O)c1ccccc1)c(=O)n2CC(=O)NC1CCCC1 sits at 700 s or higher.
**A:** Criterion met

**Q:** Dear colleague, could you confirm whether CCc1noc(NC(C)=O)c1-c1ccc(OC)c(S(=O)(=O)N2CCc3ccccc32)c1 has RP-LC retention time at or above 700 s?
**A:** Criterion met

**Q:** Identify whether the reported RP-LC retention time of the following compound is 700 s or greater: CCOc1ccc(C(=O)NCc2ccc3c(c2)Sc2ncccc2C(=O)N3CC)cc1
**A:** Criterion met

**Q:** Check this compound for RP-LC retention time at or above 700 s: Cc1[nH]nc(-c2c(C)sc(C)c2S(=O)(=O)NCc2ccc(Cl)cc2)c1C
**A:** Criterion met

**Q:** Say whether O=C(Nc1ccc(SCc2nnc(-c3ccccc3)o2)cc1)c1ccc(Br)o1 shows RP-LC retention time of 700 s or more.
**A:** Criterion met

**Q:** I'd appreciate it if you could say whether Cc1cc(-c2c(C)sc(C)c2S(=O)(=O)Nc2ccc(C)c(F)c2)n[nH]1 has RP-LC retention time at least equal to 700 s.
**A:** Criterion met
